assay: AUC in CD-1 mouse at 2 mg/kg, iv measured up to 24 hrs by LC-MS/MS; assay type: ADME, organism-based; set-up: route intravenous, dose 2 mg/kg, time <=24; conditions: in vivo
measured-parameter: AUC at 24 h (ng·h/mL)

[[record]]
chemical_smiles = "Cl.Nc1cccc2c(S(=O)(=O)NCc3ccccc3)cccc12"
numeric_result = 204


----------
target: Histone-lysine N-methyltransferase NSD2 (Homo sapiens); test: Inhibition of NSD2 (953 to 1240 residues) (unknown origin) using SAM as substrate in presence of nucleosome by AlphaScreen assay
Sequence (O96028 whole entry, the tested form may be a part): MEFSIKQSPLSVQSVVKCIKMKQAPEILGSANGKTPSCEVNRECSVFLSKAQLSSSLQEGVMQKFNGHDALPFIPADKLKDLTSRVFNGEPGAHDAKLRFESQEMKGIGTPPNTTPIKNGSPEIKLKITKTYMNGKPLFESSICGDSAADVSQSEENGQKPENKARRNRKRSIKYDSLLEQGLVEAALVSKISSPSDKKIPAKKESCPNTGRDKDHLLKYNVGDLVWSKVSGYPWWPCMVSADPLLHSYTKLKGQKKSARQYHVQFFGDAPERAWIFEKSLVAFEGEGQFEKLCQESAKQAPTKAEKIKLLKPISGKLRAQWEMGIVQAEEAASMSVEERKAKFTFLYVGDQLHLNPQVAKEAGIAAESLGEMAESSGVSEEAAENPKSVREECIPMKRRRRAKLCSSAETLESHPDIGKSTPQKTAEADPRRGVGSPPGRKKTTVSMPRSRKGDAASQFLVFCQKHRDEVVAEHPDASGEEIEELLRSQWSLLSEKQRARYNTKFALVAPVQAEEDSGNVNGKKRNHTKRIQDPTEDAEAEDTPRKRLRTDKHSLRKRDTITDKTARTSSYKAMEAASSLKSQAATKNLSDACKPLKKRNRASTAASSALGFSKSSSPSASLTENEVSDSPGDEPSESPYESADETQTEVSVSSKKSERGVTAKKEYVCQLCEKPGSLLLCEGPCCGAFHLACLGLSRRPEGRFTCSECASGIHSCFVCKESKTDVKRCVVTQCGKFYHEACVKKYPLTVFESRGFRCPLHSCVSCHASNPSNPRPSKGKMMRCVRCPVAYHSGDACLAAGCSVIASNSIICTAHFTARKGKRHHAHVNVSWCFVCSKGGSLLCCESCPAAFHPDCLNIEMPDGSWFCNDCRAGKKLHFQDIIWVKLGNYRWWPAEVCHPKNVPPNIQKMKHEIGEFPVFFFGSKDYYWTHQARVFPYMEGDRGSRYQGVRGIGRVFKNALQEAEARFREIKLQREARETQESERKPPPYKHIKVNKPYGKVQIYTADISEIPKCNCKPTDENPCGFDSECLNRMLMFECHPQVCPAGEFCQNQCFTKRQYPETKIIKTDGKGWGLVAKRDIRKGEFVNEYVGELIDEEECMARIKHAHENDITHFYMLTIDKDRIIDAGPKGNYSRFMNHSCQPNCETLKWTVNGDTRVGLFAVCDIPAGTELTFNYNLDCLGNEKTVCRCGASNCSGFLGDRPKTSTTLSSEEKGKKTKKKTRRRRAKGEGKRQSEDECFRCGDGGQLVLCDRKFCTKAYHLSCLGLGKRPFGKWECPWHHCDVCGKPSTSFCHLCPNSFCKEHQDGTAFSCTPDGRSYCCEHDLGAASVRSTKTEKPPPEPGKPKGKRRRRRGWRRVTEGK
pIC50: −log10 of the molar value.
measured-parameter: pIC50

[[record]]
molecule = "CCC(C)NC(CC[C@H](N)C(=O)O)C[C@H]1O[C@@H](n2cnc3c(N)ncnc32)[C@H](O)[C@@H]1O (stereo partly specified)"
numeric_result = 5.48


----------
experiment: MRT in CD-1 mouse at 2 mg/kg, ip measured up to 24 hrs by LC-MS/MS; type: ADME, organism-based; conditions: in vivo
measured-parameter: MRT (min)

[[record]]
chemical_smiles = "Cl.Nc1cccc2c(S(=O)(=O)NCc3ccccc3)cccc12"
numeric_result = 31.9

